Recorded CC50 at 72 h by entry
experimental details: MTT cytotoxicity assay in HK-2 cells
Format: cell-based, human
condition: human, HK-2 cells; 72 h incubation; Mean ± Standard deviation, n = 3
Structures can show the parent of a compound that is named as a salt.

Example results:
molecule | endpoint result
COc1cccc2c1C(=O)c1c(O)c3c(c(O)c1C2=O)C[C@@](O)(C(=O)CO)C[C@@H]3O[C@H]1C[C@H](N)[C@H](O)[C@H](C)O1 | > 50 µM
CNC(C)C1CCC(N)C(OC2C(N)CC(N)C(OC3OCC(C)(O)C(NC)C3O)C2O)O1 (stereo not drawn) [Gentamicin, gentamicin sulfate] | > 1000 µM

Moving on to another molecule below.
Record C[C@@H]1[C@H](O)[C@@H](C)/C=C/C=C/C=C/C=C/C=C/C=C/C=C/[C@H](O[C@@H]2O[C@H](C)[C@@H](O)[C@H](N)[C@@H]2O)C[C@@H]2O[C@](O)(C[C@@H](O)C[C@@H](O)[C@H](O)CC[C@@H](O)C[C@@H](O)CC(=O)O[C@H]1C)C[C@H](O)[C@H]2C(=O)O , field CC50 at 72 h: > 50 µM

---

experimental details: MTT cytotoxicity assay in hRPTECs
Type: cell-based, human
condition: human, hRPTECs (passage 2); 72 h incubation; Mean ± Standard deviation, n = 3
Counter-ions that a name gives are not always drawn.
reported endpoint: CC50 at 72 h

Example results:
compound | reported endpoint | endpoint result
COc1cccc2c1C(=O)c1c(O)c3c(c(O)c1C2=O)C[C@@](O)(C(=O)CO)C[C@@H]3O[C@H]1C[C@H](N)[C@H](O)[C@H](C)O1 | CC50 at 72 h | > 50 µM
C[C@@H]1[C@H](O)[C@@H](C)/C=C/C=C/C=C/C=C/C=C/C=C/C=C/[C@H](O[C@@H]2O[C@H](C)[C@@H](O)[C@H](N)[C@@H]2O)C[C@@H]2O[C@](O)(C[C@@H](O)C[C@@H](O)[C@H](O)CC[C@@H](O)C[C@@H](O)CC(=O)O[C@H]1C)C[C@H](O)[C@H]2C(=O)O | CC50 at 72 h | > 50 µM

Record CNC(C)C1CCC(N)C(OC2C(N)CC(N)C(OC3OCC(C)(O)C(NC)C3O)C2O)O1 (stereo not drawn) [Gentamicin, gentamicin sulfate] , field CC50 at 72 h: > 1000 µM

---

experimental details: Resazurin cytotoxicity assay in HK-2 cells
Type: cell-based, human
condition: human, HK-2 cells; 72 h incubation; Mean ± Standard deviation, n = 3
reported endpoint: CC50 at 72 h (µM)
Response body: numeric value in µM, unit text excluded.

smiles data | CC50 at 72 h [µM]
COc1cccc2c1C(=O)c1c(O)c3c(c(O)c1C2=O)C[C@@](O)(C(=O)CO)C[C@@H]3O[C@H]1C[C@H](N)[C@H](O)[C@H](C)O1 | 2.1

Moving on to another molecule below.
Record C[C@@H]1[C@H](O)[C@@H](C)/C=C/C=C/C=C/C=C/C=C/C=C/C=C/[C@H](O[C@@H]2O[C@H](C)[C@@H](O)[C@H](N)[C@@H]2O)C[C@@H]2O[C@](O)(C[C@@H](O)C[C@@H](O)[C@H](O)CC[C@@H](O)C[C@@H](O)CC(=O)O[C@H]1C)C[C@H](O)[C@H]2C(=O)O , field CC50 at 72 h: 20

// data source = paper PMC4492764
